# TESTED_SYSTEM: EGFR Δ19del/T790M/C797S (Homo sapiens, UniProt P00533, T790M/C797S, form not given)
# Sequence (P00533 with tags, fused parts or gaps DEL746-750/T790M/C797S, form open): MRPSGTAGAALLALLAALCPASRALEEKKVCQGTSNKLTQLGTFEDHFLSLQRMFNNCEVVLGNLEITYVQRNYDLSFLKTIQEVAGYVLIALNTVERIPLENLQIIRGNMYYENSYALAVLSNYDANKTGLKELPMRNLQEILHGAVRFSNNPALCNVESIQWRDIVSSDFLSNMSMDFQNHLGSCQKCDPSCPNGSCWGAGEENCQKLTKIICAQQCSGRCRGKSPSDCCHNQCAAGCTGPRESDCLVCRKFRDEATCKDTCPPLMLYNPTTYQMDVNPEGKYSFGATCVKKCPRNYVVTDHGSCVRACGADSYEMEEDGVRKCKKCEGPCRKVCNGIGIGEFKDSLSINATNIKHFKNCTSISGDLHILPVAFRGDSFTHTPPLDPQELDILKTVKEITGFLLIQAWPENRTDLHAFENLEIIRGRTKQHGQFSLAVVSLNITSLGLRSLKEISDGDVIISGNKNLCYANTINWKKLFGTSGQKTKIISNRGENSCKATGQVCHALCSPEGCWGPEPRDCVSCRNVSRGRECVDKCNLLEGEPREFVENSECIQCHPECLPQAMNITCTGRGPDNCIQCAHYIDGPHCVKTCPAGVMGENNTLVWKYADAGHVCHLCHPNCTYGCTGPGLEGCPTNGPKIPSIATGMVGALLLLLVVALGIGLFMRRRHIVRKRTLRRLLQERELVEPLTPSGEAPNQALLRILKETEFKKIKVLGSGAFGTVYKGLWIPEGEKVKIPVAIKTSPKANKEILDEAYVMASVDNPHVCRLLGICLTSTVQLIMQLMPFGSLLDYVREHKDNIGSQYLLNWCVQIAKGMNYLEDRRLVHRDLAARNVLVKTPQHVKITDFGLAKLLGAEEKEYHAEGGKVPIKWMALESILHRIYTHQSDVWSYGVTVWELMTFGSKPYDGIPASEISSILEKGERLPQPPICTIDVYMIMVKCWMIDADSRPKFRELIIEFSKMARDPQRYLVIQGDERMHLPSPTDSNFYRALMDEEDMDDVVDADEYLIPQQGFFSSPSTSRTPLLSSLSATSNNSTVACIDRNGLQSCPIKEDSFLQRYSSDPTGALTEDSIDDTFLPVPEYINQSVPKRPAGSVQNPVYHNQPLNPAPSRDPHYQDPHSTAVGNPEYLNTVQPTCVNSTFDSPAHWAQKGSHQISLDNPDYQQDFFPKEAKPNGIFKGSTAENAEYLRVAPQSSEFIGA
# MEASUREMENT_NOTES: Kinase inhibition assay (mobility shift)
QUANTITY_MEASURED: log10 IC50 (log10 of the value in nM)
# values: log10(IC50), units nM

SMILES_STRUCTURE: CCc1cc(N2CCOCC2)c(OC)cc1Nc1ncc(Br)c(Nc2ccc3nc(C4CC4)ccc3c2P(C)(C)=O)n1
RECORDED_RESULT: -0.30
--
SMILES_STRUCTURE: COc1cc(Nc2ncc(Br)c(Nc3ccc4nc(C5CC5)ccc4c3P(C)(C)=O)n2)c(C(C)C)cc1N1CCOCC1
RECORDED_RESULT: -0.30
--
SMILES_STRUCTURE: COc1cc(Nc2ncc(Br)c(Nc3ccc4nc(C5CC5)ccc4c3P(C)(C)=O)n2)c(C#N)cc1N1CCC(N2CCN(C)CC2)CC1
RECORDED_RESULT: 1.63
--
SMILES_STRUCTURE: C#Cc1ccc2c(P(C)(C)=O)c(Nc3nc(Nc4cc(OC)c(N5CCC(N6CCN(C)CC6)CC5)cc4C)ncc3Br)ccc2n1
RECORDED_RESULT: -0.54

Report log10 IC50 for COc1cc(N2CCC(N3CCN(C)CC3)CC2)c(C)cc1Nc1ncc(Br)c(Nc2ccc3nc(C(C)C)ccc3c2P(C)(C)=O)n1 please. -0.92

Report log10 IC50 for CCc1cc(Nc2ncc(Br)c(Nc3ccc4nc(C5CC5)ccc4c3P(C)(C)=O)n2)c(C)cc1N1CCC(N2CCN(C)CC2)CC1 please. -0.52
